List of End Groups Carboxylate values.
# measurement.protocol: End group determination
# Format: physicochemical
# conditions.used: PET I.V. 0.73 + 1% salt, 2-roll mill 300 °C 2 min
Give your result in moles × 10^-6 g^-1 as a bare value.

molecule | observation.type | numeric.readout
O=C([O-])c1c(O)cccc1O.[Na+] [sodium 2,6-dihydroxybenzoate] | End Groups Carboxylate | 5

response.value for O=C(O)c1ccccc1Cl [ortho-chlorobenzoic acid] (field: End Groups Carboxylate) = 37

Note to self: End Groups Carboxylate recorded for O=C([O-])c1c(Cl)cccc1Cl.[Na+] [sodium 2,6-dichlorobenzoate] was 15

// sample O=C(O)c1ccc(Cl)cc1Cl [2,4-dichlorobenzoic acid] , its End Groups Carboxylate was 32

Reported End Groups Carboxylate of O=C([O-])c1ccc(O)cc1.[Na+] [sodium p-hydroxybenzoate] : 4
